Test system: NALM6
Assay: Anti-proliferation assay (CellTiter-Glo), NALM6
Format: cell-based, human
Conditions: NALM6, 96 hour treatment

compound	IC50, pM
C=C1C[C@H]2C=Nc3cc(OCCCCCOc4cc5c(cc4OC)C(=O)N4CC(=C)C[C@H]4C=N5)c(OC)cc3C(=O)N2C1 [Free dPBD (SG2057), SG2057]	3.5

----------
System: WSU-DLCL2
Test: Anti-proliferation assay (CellTiter-Glo), WSU-DLCL2
Assay type: cell-based
Settings: WSU-DLCL2, 96 hour treatment

compound	units text	IC50
C=C1C[C@H]2C=Nc3cc(OCCCCCOc4cc5c(cc4OC)C(=O)N4CC(=C)C[C@H]4C=N5)c(OC)cc3C(=O)N2C1 [Free dPBD (SG2057), SG2057]	pM	4
